Entries annotated with measured MIC
# Test system: Escherichia coli (ATCC25922)
# METHOD_DESCRIPTION: MIC, broth microdilution (CLSI), Escherichia coli ATCC25922
# DETAILS: ATCC25922, read-out: E. coli MIC, Table 15, NI = No inhibition
The figure you give is taken to be in µg/mL; do not add the unit.

Example entries and their recorded answers appear below.
The compound FC(F)(F)c1cc(NC2CCNCC2)c2c(c1)SC1CCCCC1N2 (centres unmarked) showed MIC equal to 64

The compound CC1CC(C)CN(c2ccc3c(c2)Sc2cc(C(F)(F)F)cc(NC4CCN(CCN)CC4)c2N3)C1.Cl.Cl.Cl (centres unmarked) showed MIC equal to 8

The compound `Cl.NCCN1CCC(Nc2cc(C(F)(F)F)cc3c2Nc2ccc(N4CCC4)cc2S3)CC1` showed MIC equal to 8

The compound `NCCN1CC(Nc2cc(C(F)(F)F)cc3c2Nc2ccccc2S3)C1` showed MIC equal to 24

The compound NC1CCCC(C(=O)Nc2cc(C(F)(F)F)cc3c2Nc2ccccc2O3)C1 (centres unmarked) showed MIC equal to 25

The compound `Cl.NCCNCCCNc1cc(C(F)(F)F)cc2c1Nc1ccc(C3=CCCC3)cc1S2` showed MIC equal to 16

Further cases:
The compound CC1CCCN1c1ccc2c(c1)Sc1cc(C(F)(F)F)cc(NC3CCN(CCN)CC3)c1N2.Cl.Cl (centres unmarked) showed MIC equal to 8

---

# System: S. pneumoniae ATCC 49619
QUANTITY_KIND: MIC (µg/mL)
The figure you give is taken to be in µg/mL; do not add the unit.

# value of MIC, S. pneumoniae ATCC 49619, item CC1CC(C)CN(c2ccc3c(c2)Sc2cc(C(F)(F)F)cc(NC4CCN(CCN)CC4)c2N3)C1.Cl.Cl.Cl (stereo not shown) [compound 274] = 4

Further cases:
# value of MIC, S. pneumoniae ATCC 49619, item NCCN1CCC(Nc2cc(C(F)(F)F)cc3c2Nc2ccccc2S3)CC1 [compound 140] = 32

# value of MIC, S. pneumoniae ATCC 49619, item Nc1cc(C(F)(F)F)cc2c1N(CCCn1ccnc1)c1ccccc1S2 [compound 44] = 16

# value of MIC, S. pneumoniae ATCC 49619, item Cl.NC1CCCC(CNc2cc(C(F)(F)F)cc3c2Nc2ccc(N4CCCC4)cc2S3)C1 (stereo not shown) [compound 300] = 4

---

# Test system: Escherichia coli (ATCC25922)
# METHOD_DESCRIPTION: MIC, broth microdilution (CLSI), Escherichia coli ATCC25922
# DETAILS: ATCC25922, read-out: E. coli MIC, Table 15, NI = No inhibition
Entries annotated with measured MIC
The figure you give is taken to be in µg/mL; do not add the unit.

# value of MIC, Escherichia coli (ATCC25922), item FC(F)(F)c1cc(NC2CCNC2)c2c(c1)Sc1ccccc1N2 (centres unmarked) = 11

# value of MIC, Escherichia coli (ATCC25922), item `NCCN1CCC(Nc2cc(Cl)cc3c2Nc2ccccc2S3)CC1` = 24

# value of MIC, Escherichia coli (ATCC25922), item `COC(=O)c1ccc2c(c1)Sc1cc(C(F)(F)F)cc(NC3CCN(CCN)CC3)c1N2` = 4

# value of MIC, Escherichia coli (ATCC25922), item CC1CC(C)N(c2ccc3c(c2)Sc2cc(C(F)(F)F)cc(NCCCNCCN)c2N3)C1.Cl (centres unmarked) = 16

# value of MIC, Escherichia coli (ATCC25922), item NC1CCCC(C(=O)Nc2cc(C(F)(F)F)cc3c2Nc2ncccc2S3)C1 (centres unmarked) = 64

// moving on: another record for MIC
# value of MIC, Escherichia coli (ATCC25922), item `Cl.Cl.NCCN1CCC(Nc2cc(C(F)(F)F)cc3c2Nc2ccc(C(=O)N4CCCC4)cc2S3)CC1` = 16

The measurements presented in this section are drawn from patent US11130741B2.
